# TARGET_UNDER_TEST: Calcium/calmodulin-dependent protein kinase type II subunit gamma (Homo sapiens, UniProt Q13555)
# Sequence (Q13555 whole entry): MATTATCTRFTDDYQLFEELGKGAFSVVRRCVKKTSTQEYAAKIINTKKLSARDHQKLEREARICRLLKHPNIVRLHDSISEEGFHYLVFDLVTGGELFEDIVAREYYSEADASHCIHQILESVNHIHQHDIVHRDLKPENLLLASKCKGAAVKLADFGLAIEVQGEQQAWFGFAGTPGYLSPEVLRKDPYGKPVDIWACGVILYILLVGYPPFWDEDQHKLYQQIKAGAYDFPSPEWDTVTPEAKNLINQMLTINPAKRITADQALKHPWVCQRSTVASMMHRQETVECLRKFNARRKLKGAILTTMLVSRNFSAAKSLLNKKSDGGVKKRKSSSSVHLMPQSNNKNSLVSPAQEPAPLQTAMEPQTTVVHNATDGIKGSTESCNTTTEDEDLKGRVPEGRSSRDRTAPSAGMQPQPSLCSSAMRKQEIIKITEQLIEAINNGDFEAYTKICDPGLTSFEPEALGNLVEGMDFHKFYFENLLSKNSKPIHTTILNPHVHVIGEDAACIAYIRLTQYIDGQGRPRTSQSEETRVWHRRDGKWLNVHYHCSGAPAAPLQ
# TEST_SUMMARY: Binding affinity to recombinant full-length N-terminal His-FLAG-GST-tagged CAMK2G (unknown origin) expressed in baculovirus infected Sf9 insect cells incubated for 1 hr in presence of calmodulin by TR-FRET assay
Recorded pKd for the following compounds
By convention, pKd is the negative base-10 log of a molar concentration.

{"CPD_SMILES": "CO[C@@H]1[C@H](N(C)CCOCCOCCOCCNC(=O)CCC2=[N+]3C(=Cc4c(C)cc(C)n4[B-]3(F)F)C=C2)C[C@H]2O[C@]1(C)n1c3ccccc3c3c4c(c5c6ccccc6n2c5c31)C(=O)NC4", "RECORDED_METRIC": "pKd", "MEAS_VALUE": 8.05}

Query compound follows.
Quickly give me recorded pKd for CO[C@@H]1[C@H](NCCOCCOCCOCCNC(=O)CCC2=[N+]3C(=Cc4c(C)cc(C)n4[B-]3(F)F)C=C2)C[C@H]2O[C@]1(C)n1c3ccccc3c3c4c(c5c6ccccc6n2c5c31)C(=O)NC4
8.10

* * *

Each entry below lists one item and its recorded Kd value.
# TARGET_UNDER_TEST: cAMP-dependent protein kinase catalytic subunit beta (Homo sapiens, UniProt P22694)
# TEST_SUMMARY: Binding affinity to recombinant full-length N-terminal His-FLAG-GST-tagged PRKACB (unknown origin) expressed in baculovirus infected Sf9 insect cells incubated for 1 hr by TR-FRET assay
Answer in µM, number only, no unit symbol.

{"CPD_SMILES": "CO[C@@H]1[C@H](NCCOCCOCCOCCNC(=O)CCC2=[N+]3C(=Cc4c(C)cc(C)n4[B-]3(F)F)C=C2)C[C@H]2O[C@]1(C)n1c3ccccc3c3c4c(c5c6ccccc6n2c5c31)C(=O)NC4", "Kd, µM": 0.064}

Let's switch to this compound now.
Report Kd, nothing else, for this compound: CO[C@@H]1[C@H](N(C)CCOCCOCCOCCNC(=O)CCC2=[N+]3C(=Cc4c(C)cc(C)n4[B-]3(F)F)C=C2)C[C@H]2O[C@]1(C)n1c3ccccc3c3c4c(c5c6ccccc6n2c5c31)C(=O)NC4
0.066

* * *

# TARGET_UNDER_TEST: MAP kinase-interacting serine/threonine-protein kinase 2 (Homo sapiens, UniProt Q9HBH9)
# Sequence (Q9HBH9 whole entry): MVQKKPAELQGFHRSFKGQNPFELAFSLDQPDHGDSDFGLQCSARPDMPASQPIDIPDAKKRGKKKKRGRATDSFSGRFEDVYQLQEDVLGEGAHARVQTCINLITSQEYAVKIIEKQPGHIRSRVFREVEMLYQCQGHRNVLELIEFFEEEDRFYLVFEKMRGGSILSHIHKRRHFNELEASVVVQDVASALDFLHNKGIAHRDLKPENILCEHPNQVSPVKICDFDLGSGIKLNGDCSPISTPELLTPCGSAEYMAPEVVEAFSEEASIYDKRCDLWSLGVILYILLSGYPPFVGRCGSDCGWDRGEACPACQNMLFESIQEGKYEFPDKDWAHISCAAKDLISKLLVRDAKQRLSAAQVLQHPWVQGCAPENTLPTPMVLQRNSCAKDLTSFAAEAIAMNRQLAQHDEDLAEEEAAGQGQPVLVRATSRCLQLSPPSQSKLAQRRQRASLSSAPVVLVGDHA
# TEST_SUMMARY: Binding affinity to recombinant human full-length N-terminal GST-tagged MKNK2 expressed in baculovirus expression system using RS peptide as substrate incubated for 1 hr by TR-FRET assay
Catalogue of compounds with associated pKd
By convention, pKd is the negative base-10 log of a molar concentration.

{"CPD_SMILES": "CO[C@@H]1[C@H](N(C)CCOCCOCCOCCNC(=O)CCC2=[N+]3C(=Cc4c(C)cc(C)n4[B-]3(F)F)C=C2)C[C@H]2O[C@]1(C)n1c3ccccc3c3c4c(c5c6ccccc6n2c5c31)C(=O)NC4", "MEAS_VALUE": 6.69}

Read the entry CO[C@@H]1[C@H](NCCOCCOCCOCCNC(=O)CCC2=[N+]3C(=Cc4c(C)cc(C)n4[B-]3(F)F)C=C2)C[C@H]2O[C@]1(C)n1c3ccccc3c3c4c(c5c6ccccc6n2c5c31)C(=O)NC4 and write its reported pKd.
6.79

* * *

# TARGET_UNDER_TEST: Serine/threonine-protein kinase PAK 6 (Homo sapiens)
# Sequence (Q9NQU5 whole entry): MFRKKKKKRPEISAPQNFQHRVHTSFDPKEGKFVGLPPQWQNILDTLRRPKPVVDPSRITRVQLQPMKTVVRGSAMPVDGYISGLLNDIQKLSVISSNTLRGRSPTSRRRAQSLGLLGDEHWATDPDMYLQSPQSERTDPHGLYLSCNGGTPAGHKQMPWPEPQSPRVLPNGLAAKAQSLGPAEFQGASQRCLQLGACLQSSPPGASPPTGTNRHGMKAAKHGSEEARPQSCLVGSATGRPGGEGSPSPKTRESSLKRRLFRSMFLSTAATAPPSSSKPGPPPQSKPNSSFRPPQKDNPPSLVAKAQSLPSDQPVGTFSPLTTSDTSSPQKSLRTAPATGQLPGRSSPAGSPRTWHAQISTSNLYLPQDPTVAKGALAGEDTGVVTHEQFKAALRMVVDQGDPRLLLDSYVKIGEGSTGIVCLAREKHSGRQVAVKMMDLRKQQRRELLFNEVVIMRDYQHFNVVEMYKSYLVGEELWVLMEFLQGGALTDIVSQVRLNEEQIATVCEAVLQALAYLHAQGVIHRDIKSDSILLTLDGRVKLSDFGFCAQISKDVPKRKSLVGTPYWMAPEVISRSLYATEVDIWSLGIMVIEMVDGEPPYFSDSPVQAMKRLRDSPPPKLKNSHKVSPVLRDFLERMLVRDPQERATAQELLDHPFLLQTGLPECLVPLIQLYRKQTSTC
# TEST_SUMMARY: Binding affinity to recombinant human full-length N-terminal GST-tagged PAK6 expressed in baculovirus expression system using SGKtide as substrate incubated for 1 hr by TR-FRET assay
Each entry below carries its reported Kd.
State just the number; it will be interpreted in µM.

{"CPD_SMILES": "CO[C@@H]1[C@H](NCCOCCOCCOCCNC(=O)CCC2=[N+]3C(=Cc4c(C)cc(C)n4[B-]3(F)F)C=C2)C[C@H]2O[C@]1(C)n1c3ccccc3c3c4c(c5c6ccccc6n2c5c31)C(=O)NC4", "Kd [µM]": 0.022}

Note: attention shifts to another entry.
Specify Kd for CO[C@@H]1[C@H](N(C)CCOCCOCCOCCNC(=O)CCC2=[N+]3C(=Cc4c(C)cc(C)n4[B-]3(F)F)C=C2)C[C@H]2O[C@]1(C)n1c3ccccc3c3c4c(c5c6ccccc6n2c5c31)C(=O)NC4 and stop.
0.025
